# System: COR L88 complex tumor spheroid viability
# PROCEDURE TEXT: Anticancer human tumor COR L88 cell line growth inhibition; active = viability on the fitted dose curve at most 10% of control; inactive = the rest
# CONDITION: second compound 94.9 pM; first compound 10 µM
Output constraint: value belongs to active, inactive

Each compound tested received a call. Report the one for COc1cc(C)[nH]c(=O)c1CN1CCc2c(Cl)cc(C(OC)C3COC3)c(Cl)c2C1=O (configuration not stated) + COc1cc2c(cc1O)CCNC21CSC2c3c(OC(C)=O)c(C)c4c(c3C(COC1=O)N1C(O)C3Cc5cc(C)c(OC)c(O)c5C(C21)N3C)OCO4 .
inactive

Each compound tested received a call. Report the one for CC1COCCN1c1cc(-c2ccnn2C)c2ccnc(-c3ccn[nH]3)c2n1 (configuration not stated) + COc1cc2c(cc1O)CCNC21CSC2c3c(OC(C)=O)c(C)c4c(c3C(COC1=O)N1C(O)C3Cc5cc(C)c(OC)c(O)c5C(C21)N3C)OCO4 .
active

====

# System: COR L88 complex tumor spheroid viability
# PROCEDURE TEXT: Anticancer human tumor COR L88 cell line growth inhibition
# CONDITION: second compound 3.16 µM; first compound 0.949 µM; active compounds read low
Would you mind telling me the reported viability, T/C of each entry?
Express your answer in %, writing the number without its unit.

For Cn1ncnc1[C@H]1c2n[nH]c(=O)c3cc(F)cc(c23)N[C@@H]1c1ccc(F)cc1 + Cn1nnc2c(C(N)=O)ncn2c1=O , what is its reported viability, T/C?
38.5

For O=C(c1cc(Cc2n[nH]c(=O)c3ccccc23)ccc1F)N1CCN(C(=O)C2CC2)CC1 + Cn1nnc2c(C(N)=O)ncn2c1=O , what is its reported viability, T/C?
91.8

For CNCc1ccc(-c2cc(-c3nc(-c4ccc(S(=O)(=O)C(C)C)cc4)cnc3N)on2)cc1 + Cn1nnc2c(C(N)=O)ncn2c1=O , what is its reported viability, T/C?
33.6

For Cc1sc2c(c1C)C(c1ccc(Cl)cc1)=NC(CC(=O)Nc1ccc(O)cc1)c1nnc(C)n1-2 (centres undefined) + Cn1nnc2c(C(N)=O)ncn2c1=O , what is its reported viability, T/C?
38.6

====

# Test system: COR L88 complex tumor spheroid viability
# PROCEDURE TEXT: Anticancer human tumor COR L88 cell line growth inhibition
# CONDITION: second compound 0.0003 µM; first compound 0.1 µM; active compounds read low
PROPERTY: viability, T/C (%)
Express your answer in %, writing the number without its unit.

For CC1COCCN1c1cc(-c2ccnn2C)c2ccnc(-c3ccn[nH]3)c2n1 (configuration not stated) + COc1cc2c(cc1O)CCNC21CSC2c3c(OC(C)=O)c(C)c4c(c3C(COC1=O)N1C(O)C3Cc5cc(C)c(OC)c(O)c5C(C21)N3C)OCO4 , what is its reported viability, T/C?
25.4

For [2H]c1nc(C)nc([2H])c1-c1cc(NC[C@@H](C)c2cccc3c(C(=O)NC)ccnc23)ncn1 + COc1cc2c(cc1O)CCNC21CSC2c3c(OC(C)=O)c(C)c4c(c3C(COC1=O)N1C(O)C3Cc5cc(C)c(OC)c(O)c5C(C21)N3C)OCO4 , what is its reported viability, T/C?
68.8

====

# Test system: COR L88 complex tumor spheroid viability
# PROCEDURE TEXT: Anticancer human tumor COR L88 cell line growth inhibition; active means viability on the fitted dose curve at most 10% of control; inactive means the rest;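 also: compound exposure lasted 7 days before viability readout; percent of DMSO vehicle-treated spheroids = 100%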
# CONDITION: second compound 0.00949 µM; first compound 3.16 µM
Output constraint: value belongs to YES (active), NO (inactive)

Each compound tested received a call. Report the one for CC1COCCN1c1cc(-c2ccnn2C)c2ccnc(-c3ccn[nH]3)c2n1 (stereo not drawn) + CC[C@@]1(O)C(=O)OCc2c1cc1n(c2=O)Cc2cc3c(CN(C)C)c(O)ccc3nc2-1 .
YES

Each compound tested received a call. Report the one for COc1cc(C)[nH]c(=O)c1CN1CCc2c(Cl)cc(C(OC)C3COC3)c(Cl)c2C1=O (stereo not drawn) + CC[C@@]1(O)C(=O)OCc2c1cc1n(c2=O)Cc2cc3c(CN(C)C)c(O)ccc3nc2-1 .
NO

Each compound tested received a call. Report the one for CC(C)n1c(=O)n(C)c2cnc3cc(F)c(-c4ccc(OCCCN5CCCCC5)nc4)cc3c21 + CC[C@@]1(O)C(=O)OCc2c1cc1n(c2=O)Cc2cc3c(CN(C)C)c(O)ccc3nc2-1 .
NO

====

Would you mind telling me the reported viability, T/C of each entry?
# Tested on: COR L88 complex tumor spheroid viability
# PROCEDURE TEXT: Anticancer human tumor COR L88 cell line growth inhibition;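 also: compound exposure lasted 7 days before viability readout; percent of DMSO vehicle-treated spheroids = 100%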
# CONDITION: second compound 94.9 pM; first compound 3.16 µM; active compounds read low
# Protocol: Multicellular complex tumor spheroid response to DNA repair inhibitors in combination with DNA-damaging drugs This study explores the anticancer activities of DNA-damaging drugs and inhibitors of DNA damage repair, both as single agents and in combinations. […] Twenty-six patient-derived or established malignant cell lines were evaluated representing sarcoma, melanoma, small cell lung cancer (SCLC), non-small cell lung cancer (NSCLC), as well as bladder, ovarian and pancreatic cancers. […]
Express your answer in %, writing the number without its unit.

Tell me reported viability, T/C for Cc1cc(C)c(CNC(=O)c2cc(-c3ccc(CN4CCOCC4)cc3)cc3c2cnn3C2CCCC2)c(=O)[nH]1 + COc1cc2c(cc1O)CCNC21CSC2c3c(OC(C)=O)c(C)c4c(c3C(COC1=O)N1C(O)C3Cc5cc(C)c(OC)c(O)c5C(C21)N3C)OCO4 , tested with COR L88 complex tumor spheroid viability.
79.2

Tell me reported viability, T/C for COc1cc(C)[nH]c(=O)c1CN1CCc2c(Cl)cc(C(OC)C3COC3)c(Cl)c2C1=O (centres undefined) + COc1cc2c(cc1O)CCNC21CSC2c3c(OC(C)=O)c(C)c4c(c3C(COC1=O)N1C(O)C3Cc5cc(C)c(OC)c(O)c5C(C21)N3C)OCO4 , tested with COR L88 complex tumor spheroid viability.
80.9

Tell me reported viability, T/C for CC1COCCN1c1cc(-c2ccnn2C)c2ccnc(-c3ccn[nH]3)c2n1 (centres undefined) + COc1cc2c(cc1O)CCNC21CSC2c3c(OC(C)=O)c(C)c4c(c3C(COC1=O)N1C(O)C3Cc5cc(C)c(OC)c(O)c5C(C21)N3C)OCO4 , tested with COR L88 complex tumor spheroid viability.
6.6

Tell me reported viability, T/C for CC(C)n1c(=O)n(C)c2cnc3cc(F)c(-c4ccc(OCCCN5CCCCC5)nc4)cc3c21 + COc1cc2c(cc1O)CCNC21CSC2c3c(OC(C)=O)c(C)c4c(c3C(COC1=O)N1C(O)C3Cc5cc(C)c(OC)c(O)c5C(C21)N3C)OCO4 , tested with COR L88 complex tumor spheroid viability.
89.3

====

# Tested on: COR L88 complex tumor spheroid viability
# PROCEDURE TEXT: Anticancer human tumor COR L88 cell line growth inhibition;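 also: compound exposure lasted 7 days before viability readout; percent of DMSO vehicle-treated spheroids = 100%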
# CONDITION: second compound 30 pM; first compound 0.0949 µM; active compounds read low
PROPERTY: viability, T/C (%)
Express your answer in %, writing the number without its unit.

For O=C(c1cc(Cc2n[nH]c(=O)c3ccccc23)ccc1F)N1CCN(C(=O)C2CC2)CC1 + COc1cc2c(cc1O)CCNC21CSC2c3c(OC(C)=O)c(C)c4c(c3C(COC1=O)N1C(O)C3Cc5cc(C)c(OC)c(O)c5C(C21)N3C)OCO4 , what is its reported viability, T/C?
93.6

For Cn1ncnc1[C@H]1c2n[nH]c(=O)c3cc(F)cc(c23)N[C@@H]1c1ccc(F)cc1 + COc1cc2c(cc1O)CCNC21CSC2c3c(OC(C)=O)c(C)c4c(c3C(COC1=O)N1C(O)C3Cc5cc(C)c(OC)c(O)c5C(C21)N3C)OCO4 , what is its reported viability, T/C?
58.9

For Cc1sc2c(c1C)C(c1ccc(Cl)cc1)=NC(CC(=O)Nc1ccc(O)cc1)c1nnc(C)n1-2 (centres undefined) + COc1cc2c(cc1O)CCNC21CSC2c3c(OC(C)=O)c(C)c4c(c3C(COC1=O)N1C(O)C3Cc5cc(C)c(OC)c(O)c5C(C21)N3C)OCO4 , what is its reported viability, T/C?
101

For CNCc1ccc(-c2cc(-c3nc(-c4ccc(S(=O)(=O)C(C)C)cc4)cnc3N)on2)cc1 + COc1cc2c(cc1O)CCNC21CSC2c3c(OC(C)=O)c(C)c4c(c3C(COC1=O)N1C(O)C3Cc5cc(C)c(OC)c(O)c5C(C21)N3C)OCO4 , what is its reported viability, T/C?
101

====

# System: COR L88 complex tumor spheroid viability
# PROCEDURE TEXT: Anticancer human tumor COR L88 cell line growth inhibition;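 also: compound exposure lasted 7 days before viability readout; percent of DMSO vehicle-treated spheroids = 100%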
# CONDITION: second compound 0.003 µM; first compound 0.316 µM; active compounds read low
Would you mind telling me the reported viability, T/C of each entry?
Express your answer in %, writing the number without its unit.

For [2H]c1nc(C)nc([2H])c1-c1cc(NC[C@@H](C)c2cccc3c(C(=O)NC)ccnc23)ncn1 + CC[C@@]1(O)C(=O)OCc2c1cc1n(c2=O)Cc2cc3c(CN(C)C)c(O)ccc3nc2-1 , what is its reported viability, T/C?
103

For CC1COCCN1c1cc(-c2ccnn2C)c2ccnc(-c3ccn[nH]3)c2n1 (stereo not drawn) + COc1cc2c(cc1O)CCNC21CSC2c3c(OC(C)=O)c(C)c4c(c3C(COC1=O)N1C(O)C3Cc5cc(C)c(OC)c(O)c5C(C21)N3C)OCO4 , what is its reported viability, T/C?
0.53

For COc1ccc([C@@H](O)c2cc(-c3ncnc4cc(N5CCOCC5)ccc34)c(F)cc2Cl)nn1 + CC[C@@]1(O)C(=O)OCc2c1cc1n(c2=O)Cc2cc3c(CN(C)C)c(O)ccc3nc2-1 , what is its reported viability, T/C?
94.2
